From: ChEMBL document CHEMBL5321221

# Measurement Notes: Antiproliferative activity against human HEK293T cells incubated for 24 hrs
# Format: toxicity, cell-based, HEK-293T
Some compounds, each annotated with its measured IC50 at 24 h.
Please reply with the bare figure in nM and do not write the unit itself.

Cc1onc(C(=O)N2CCN(C(c3ccc(Cl)cc3)c3ccc(Cl)cc3)CC2)c1[N+](=O)[O-] = 430

Here's the next entry for you.
What value of IC50 at 24 h has been reported for the following compound? COC(=O)[C@H]1Cc2c([nH]c3ccccc23)[C@H](c2ccc(C(=O)N3CCN(CCCCCCCCCCCCCNc4cccc5c4CN(C4CCC(=O)NC4=O)C5=O)CC3)cc2)N1C(=O)CCl (some centres not stated)
205

###

# System: HT-1080
# Measurement Notes: Antiproliferative activity against human HT-1080 cells incubated for 24 hrs
# Type: functional, cell-based
# Condition Label: HT-1080, 24 h
Some molecules, each annotated with its measured pIC50.
Please note pIC50 is a logarithmic value: minus log10 of concentration in mol/L. Answer with that number alone.

COC(=O)[C@H]1Cc2c([nH]c3ccccc23)[C@H](c2ccc(C(=O)N3CCN(CCCCCCCCCCCCCNc4cccc5c4CN(C4CCC(=O)NC4=O)C5=O)CC3)cc2)N1C(=O)CCl (some centres not stated) = 7.17

Here's the next entry for you.
What value of pIC50 has been reported for the following molecule? Cc1onc(C(=O)N2CCN(C(c3ccc(Cl)cc3)c3ccc(Cl)cc3)CC2)c1[N+](=O)[O-]
6.39

###

# System Under Test: Phospholipid hydroperoxide glutathione peroxidase GPX4 (Homo sapiens) (UniProt P36969)
# Sequence (P36969 whole entry): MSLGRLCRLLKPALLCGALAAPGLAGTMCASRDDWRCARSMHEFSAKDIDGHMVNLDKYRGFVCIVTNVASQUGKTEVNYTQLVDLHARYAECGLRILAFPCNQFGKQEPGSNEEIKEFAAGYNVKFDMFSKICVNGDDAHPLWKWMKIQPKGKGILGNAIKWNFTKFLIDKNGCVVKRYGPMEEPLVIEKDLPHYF
# Measurement Notes: Induction of GPX4 degradation in human HT-1080 cells at 10 nM incubated for 24 hrs relative to control
# Format: cell-based
Some molecules, each annotated with its measured Activity.
Please reply with the bare figure in % and do not write the unit itself.

COC(=O)[C@H]1Cc2c([nH]c3ccccc23)[C@H](c2ccc(C(=O)N3CCC(CN4CCN(CCCNc5cccc6c5C(=O)N(C5CCC(=O)NC5=O)C6=O)CC4)CC3)cc2)N1C(=O)CCl (stereo not given in full) = 3

What value of Activity has been reported for the following molecule? COC(=O)[C@H]1Cc2c([nH]c3ccccc23)[C@H](c2ccc(C(=O)N3CCC(CN4CCN(CCCCCCCCNc5cccc6c5C(=O)N(C5CCC(=O)NC5=O)C6=O)CC4)CC3)cc2)N1C(=O)CCl (stereo not given in full)
34

What value of Activity has been reported for the following molecule? COC(=O)[C@H]1Cc2c([nH]c3ccccc23)[C@H](c2ccc(C(=O)N3CCC(CN4CCN(CCCCCNc5cccc6c5C(=O)N(C5CCC(=O)NC5=O)C6=O)CC4)CC3)cc2)N1C(=O)CCl (stereo not given in full)
5

What value of Activity has been reported for the following molecule? COC(=O)[C@H]1Cc2c([nH]c3ccccc23)[C@H](c2ccc(C(=O)N3CCN(CCCCCCCCCCCCCNc4cccc5c4CN(C4CCC(=O)NC4=O)C5=O)CC3)cc2)N1C(=O)CCl (stereo not given in full)
57

What value of Activity has been reported for the following molecule? COC(=O)[C@H]1Cc2c([nH]c3ccccc23)[C@H](c2ccc(C(=O)N3CCC(N4CCN(CCCCCCCCCNc5cccc6c5CN(C5CCC(=O)NC5=O)C6=O)CC4)CC3)cc2)N1C(=O)CCl (stereo not given in full)
15
